Each recorded value in this set is attributed to paper PMC9482650.

# Tgt: MAGI2_3, Q86UL8
# Sequence (Q86UL8 600-682): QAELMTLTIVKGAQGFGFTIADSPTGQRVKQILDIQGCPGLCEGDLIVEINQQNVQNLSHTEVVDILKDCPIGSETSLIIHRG
# Experiment notes: holdup assay
# Parameters: key: below the threshold = too weak to quantify, mostly under pKd 3.1 to 4
# Stated conditions: plain residues with an end cap or a label only (N-terminal biotin on a linker: ttds)
Measured endpoint: pKd

INSERT INTO measurements (binder, result) VALUES
  ('QSARYRDTEL [TJP2, Q9UDY2]', 'below the threshold'),
  ('IYVPEAQTRL [DLGAP4, Q9Y2H0]', 'below the threshold'),
  ('SVWLRKETRV [CYSLTR2, Q9NS75]', 4.73),
  ('PKTPPTDTSV [KIR3DL3, Q8N743]', 'below the threshold');
